# Target system: T1, Biotin Y46,48,51(SO3) PSGL-1(42-62) peptide (human, sulfotyrosine at Y46, Y48 and Y51; C-terminal Lys-biotin)
# T1 construct: also called fully sulfated N-terminal PSGL-1 peptide
# T1 peptide: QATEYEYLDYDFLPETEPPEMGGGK
# Measurement description: ELISA, immobilized biotin peptide

{"Binder": "03B03 (antibody, IgG4, V domains shown) VH: EVQLVQSGGGLVQPGGSLRLSCAATGFTVSRNYMTWVREAPGKGLEWVAGIYKSGTTSYTESVKGRFTISRDNSKNTLYLEMSRLRAEDTAVYYCAKSTSTWGQGTQVTVSS VL: DIVMTQSPLSLPVTLGQPASISCRASQSPGYSDGNTYLNWFQQRPGQSPRRLIYKVSNRDPGVPDRFSGSGSGTDFTLKISRVEAEDVGVYYCMQATHWPSFGQGTRLEIK", "A450nm, 20 nM mAb": "2.5 A450nm"}
{"Binder": "10F01 (antibody, IgG4, V domains shown) VH: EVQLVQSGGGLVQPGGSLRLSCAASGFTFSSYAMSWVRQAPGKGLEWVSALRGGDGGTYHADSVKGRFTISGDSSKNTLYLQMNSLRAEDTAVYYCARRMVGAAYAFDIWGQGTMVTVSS VL: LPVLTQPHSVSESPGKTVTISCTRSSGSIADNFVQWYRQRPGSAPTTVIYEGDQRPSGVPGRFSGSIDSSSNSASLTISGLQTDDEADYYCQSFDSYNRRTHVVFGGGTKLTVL", "A450nm, 20 nM mAb": "2.39 A450nm"}
{"Binder": "02E01 (antibody, IgG4, V domains shown) VH: EVQLVQSGGGVVQPGRSLRLSCAASGFTFSRYGMHWVRQAPGKGLEWVSVISYDGNNKYYADSVKGRFTISRDNSKNTVYLQMNSLRADDTAVYYCARNVPVTNFGYWGQGTLVTVSS VL: QSALTQPASVSGSPGQSITISCTGTSSDVGGYNYVSWYQQHPGKAPKLMIYDVSKRPSGVSNRFSGSKSGNTASLTISGLQAEDEADYYCSSYTRPGRVFGGGTKLTVL", "A450nm, 20 nM mAb": "2.5 A450nm"}

Measured values drawn from patent US20220396632A1 for this set.
